// data source = patent US20230372289A1

- Assay info: Solubility of the product in PBS
- Type: physicochemical
- Stated conditions: aqueous buffer
Readout label: solubility

Documented solubility of C=C1CC[C@@H]2[C@](C)(CO)[C@H](O)CC[C@@]2(C)[C@@H]1C[C@H](C1=CCOC1=O)S(=O)(=O)O [AG5, 14-deoxy-12(R)-sulfo-andrographolide] : 3000 µg/mL
